meta.source: patent US20250092080A1

- assay-procedure: Cell viability in A549 (parallel to Rubella screening)
- Assay type: cell-based
- study-conditions: human, A549 cells, RA-0001522
endpoint-label: CC50 (µM)
Hi! Could you send only the number? It should be in µM, unit omitted.

So what does the record say about CC50 for CNc1nc(N)ncc1-c1cn([C@@H]2O[C@H](COP(=O)(NC(C)C(=O)OC(C)C)Oc3ccccc3)C(O)C2(C)F)cn1 (stereo in doubt) [CDW3-002] ?
97.2

###

- Test system: Huh7 cells
- study-conditions: human
endpoint-label: CC50

So what does the record say about CC50 for COc1ncc(-c2cn([C@@H]3O[C@H](CO[P@@](=O)(N[C@@H](C)C(=O)OC(C)C)Oc4ccccc4)[C@H](O)C3(C)F)cn2)c(OC)n1 (stereo partly shown) [CDW3-007] ?
> 200 µM
